# assayRemarks: folding stability dG unfold (combined trypsin and chymotrypsin); higher = more stable
Recorded folding stability dG unfold by entry
measuredAttribute: folding stability dG unfold (kcal/mol)

* SAGGSAGGSAGSMLLSLSIASVETTETTEIDPETGEKRKVTTTTITIPGTGQTITLTETVESAGGSAGGSAG [r3_424_JUSTAS] | 1.28
* SAGGSAGMPPDEPVVKTTVIPTSTAVKDAAGNPLTPEELAAAVKAAYPDVEVSFGPGNTLTITLTRSAGGSA [r15_645_JUSTAS] | 1.25
* SAGGSAGGSAGGGMPVPPVEVVEVSEEVRPLPPSSDKTVRRVTRTLPDGSTLTFEEPPESAGGSAGGSAGGS [r10_945_JUSTAS] | 0.064
* SAGGSAMKVRLEVEEEDGKLRVRLEVEVGPPVVRVEVEAEVEEVDGELVLKVTVKVELSPEALEALSAGGSA [r15_725_TrROS_Hall] | 3.78

---

# assayRemarks: folding stability dG unfold from trypsin proteolysis; higher = more stable
Recorded folding stability dG unfold by entry
measuredAttribute: folding stability dG unfold (kcal/mol)

* SAGGSAGGSAGKKKVLMTVDEIEKKLGKKIKPGSLVLVEVENGKVKKIEIFDVKKKPKKKSAGGSAGGSAGG [r11_616_TrROS_Hall] | 0.943
* SAGGSAGGSVLVIDSPEQIKKAIKEFKDNGAKSIHIRGPGRYWVIQIDPKEPKVKVERVPLGQSAGGSAGGS [r12_368_TrROS] | 0.639
* SMPEVRVEEVTIELEFTLPDGRTVRVEIRLTRVTLPDGRVFTRLEIKVEVPEEDEEARKLLKELLEELLSSA [r9_908_TrROS_Hall] | 4.52
* SPKITIDVETNKNGRGYIRFKFNGREREIRIPSNMTPEGAKEKARDIANTLQKRYQENGRPLKIEEIEIYSA [r9_751_TrROS] | 1.49
* SAGGMILKITIPKEDEEKAKELADELAKKLEEETGKPIKVKVKVEKNENGELTIVIEVDGKKIEIKLSAGGS [r16_356_TrROS_Hall] | 1.32
* SAGGSANVQVEQTGDGKIKIEFPWYGAEITLNPKKGDIEVEVLPNYKNGQPPPEDEVKNLAKEILDSAGGSA [r15_735_TrROS] | -0.0532
* KIKIEPGETVRIKVKVKLPDGEEKEIEIELSLEELEKKLGRPLTPEEILNLIKEEAEKKGFEVEEVEIEKES [r1_338_TrROS_Hall] | 0.391
* SAGGSAGGSAMYKVTIEIPETGKIYTFTHPGTAEEALAAALPEIGVSKEKIKKITVTPTEESAGGSAGGSAG [r3_79_JUSTAS] | 0.312
* SAGGSAGGSSMPVKVTRTPVPSSAPPSTEFLETVTYPDGTVTTYRFRRDDGSVTSVRVSTSPASAGGSAGGS [r12_1049_JUSTAS] | -0.535
* SAGGSASMKIRVYTISLYRPDGESVRDVPIVVPENEPDVDPEALAKAIADELGLVKVEISEEIVPLSAGGSA [r15_333_JUSTAS] | 0.589
* SAGGSAGGSAGMVTVGDTEVVIEKDPNSDKYTVTVTPADGTTETLTFDSEEEVERYIEAKSAGGSAGGSAGG [r11_238_JUSTAS] | 1.49
* SAGGMVTITLPEVNVEDPEVAEARMEEIAARLRAAGVTVTSASYDPEKGLATITVSAGGLSAAEVLASAGGS [r8_344_JUSTAS] | 2.48
* SAGGSAPIRIIKDPEKGTIMIRVPGPITVNQELKLRDENGKPWEIKNVEVERVGGRLIITMKVEPASAGGSA [r15_838_TrROS] | 1.19
* SAGGSAGGSAGGDLNDAEIIDIYRDPDSDYYYAVFRGPDGGTYLVRFDPNSDRVEVIPLSAGGSAGGSAGGS [r10_674_TrMRF] | 2.27

---

# assayRemarks: folding stability dG unfold from trypsin proteolysis; higher = more stable
measuredAttribute: folding stability dG unfold

- SAGGSAGGSAGGGTVTLEIELKVKPGEKIKDLATGEEFEVKEGETVRIRITLPLPPAPEESAGGSAGGSAGG [r7_234_TrROS_Hall]: 0.963 kcal/mol
- SAGGSAGGSAGGKKIRIVVPKENLEKIEELAKKLGPDVKIVKVEYFKETDYVVVEVEVKSAGGSAGGSAGGS [r10_23_TrROS_Hall]: 2.16 kcal/mol
- SAGGSFIKITTKLPNRKIEIPIPDAEIEVEGNTVTITFPPGNAEEVKKAVLEASDEVEITEVKIIDESAGGS [r8_490_JUSTAS]: -0.107 kcal/mol
- SPKIEIEPMPPNMFIAKIRDPEKNKKVSIHIPPNMPPGQPMQVYDPDKPKWVPFNEIEELLKKGLPVEIYSA [r9_250_TrROS]: 0.0989 kcal/mol

---

# assayRemarks: folding stability dG unfold from trypsin proteolysis; higher = more stable
measuredAttribute: folding stability dG unfold (kcal/mol)

* SAGGSARRPFNVEAWYPPGRSADNVADELASHFFGIKIDDVEVEPNPDNGYYKIEATIRIPPDWLKSAGGSA [r15_930_TrROS] | 0.0136
* SASMTYTVTVTVSVKNPDGTPIGTIPITRTMNLDEAKVIVEKEIKKTVDELFPGKPANVTVDTTVTPLPSAG [r14_570_JUSTAS] | 0.482
* SAGGKWKPIGKFEFTLPDGVKVTVTVEENPPLELKITAEVEIYVPPPKPPVPPLGPEEVKKWLEENKSAGGS [r16_6_TrMRF] | 1.87
* SAGSPLTLSEKTSYDPSTGVTTRTFTFPDGTTRTTATVTVPGTGTLLTSTDFTQSPGTLTQSSGVAPLSAGG [r19_394_JUSTAS] | 0.392
* SAGGSAGGSDDSPEDAQKQQAKPEIKIKLHIRFPDGKEYDLDEPFEFPINGQPMRISSIDIVYSAGGSAGGS [r12_43_TrROS] | 0.419
* SAGGSAMLVVADDPEVVRELVEPLFPDGEPVLVVGATEEEAAKLVEELKKKGLPFKVVVVRRPDRPSAGGSA [r15_567_TrMRF] | 0.932
* SAGMVVENPGTETRVVFDPETGELYVEVGDKVYRIPLPPGVEVEFEVDPEAGTIRVYFPNTGEVLELPLSAG [r5_858_TrMRF] | 4.19

---

Recorded folding stability dG unfold by entry
# assayRemarks: folding stability dG unfold from trypsin proteolysis; higher = more stable
measuredAttribute: folding stability dG unfold (kJ/mol)

• SGMPPVSFANLELVAVSPDGTVTVVRAELTGPDGERYVWTGSLSELLKRLEEEDLTLDNFKEGGLIVAVDSA [r9_1078_TrMRF] = 11.6
• SAGGSAMMLAKVKIELPNGEIVEIPIEFESLEELEEKIKEKARELFPDIPIEDIKILDIELYSLEESAGGSA [r15_220_TrMRF] = 17
• SMFRIRFKDGSEFDIELNEDGELTITNKNGKKITLTFKTKEEALKAAEELKKKYPNMKVEIEEVSPEELKSA [r9_1206_TrROS_Hall] = 10.9
• SAGGSAGGSAGGSSMSSGPGRLSITTSTVDTGSFFKPGGEVEGSKTTTVTVTTLLPPSTPSAGGSAGGSAGG [r7_614_JUSTAS] = 0.879
• SAGGSAGGSAGIPLGPDGGLIVTEGPDGPVEERLFASPEEARRWIEEHLPEGWRVVFRPLSAGGSAGGSAGG [r11_983_TrMRF] = 4.81
• SAGGSAGGSAGGRLVVFEVKKDELNITGPGEARVVSVEELPGDRVRVVVEVPEGAVPGLASAGGSAGGSAGG [r17_48_TrMRF] = 1.36
• SAGNITIEWEEYEDYRVIKITIPYKSPQQAPEEIESIIRKLGFPPNMKIEDIEVDPEEGHVEITIYIKSAGG [r19_186_TrROS] = 16.1
• SAGGSAGGSAGGIKITPDIRELLRQQGKPFSEEEIQGIAKYIAKHFKEKGFEDVTIRIPWSAGGSAGGSAGG [r7_512_TrROS] = 1.97
• SAGGRYWKLTTPPDRPLRLVIEPVPLEDTPEEYGSRLYIPNTGKVYYFPLKYAQEILDLPWIERLEPVSAGG [r19_302_TrMRF] = 3.78
• SAGPDKPLKIESIGGKFNPDNGVISIKLKVEDPGDGKTYDYTMQFPVRDPDNGKPYMFTFPMRIKVPDSAGG [r19_129_TrROS] = 2.7
• SAGGSAGGSIPEILKKIGISPEVVTEVEVTPVEKLPDSLVVKVTYTYKLPNGTTETKTVTVPIGSAGGSAGG [r6_776_JUSTAS] = 8.96
• SAGGSAGGSAGMIKIEETVVLPDGTVVRKEKEIEPPNGKTTTLKTETVPVLSPGSESLLLSAGGSAGGSAGG [r11_919_JUSTAS] = 1.79
• SAGMLRVDIEIPPAFRKMLKNAPPGETVMFELPIKIKIEYYQPDGGKPEPKEHEQPFPVQFMVVLPPDGSAG [r5_946_TrROS] = 8.97
• SAGGWMTWEFELEDEDGKDIKIEVEQNPGNPWWRVKIEHKGGKPIPEIPIPADSPDDAIDQARDLLKSAGGS [r16_158_TrROS] = 0.711
• SAGGSAGGSAGGKATLGEDGFLVIEREVELPDGPYRPETLVIPLPELTPEEVERLLETESAGGSAGGSAGGS [r10_1096_TrMRF] = 5.2
• SAGGSAGGSREIKIDDFERHNGYYYITVEIKDPNNGKKRPLEIPYPPNQPNADRFAKDIADELSAGGSAGGS [r12_415_TrROS] = -3.14
• SAGGSAMKKLTIELPDPDITPEEAEKRAREIAEKIAEGNYKVEEIKVEPVDPEKNVYRGTVIIKELSAGGSA [r15_96_JUSTAS] = 2.68
• SAGGDPVRIFIMSGNGIFPIEIPLDPGEKVEFEMKFNGQEVTITITPGDGEIEIEMPPGFNIMALEPSAGGS [r16_761_TrROS] = 6.64
• SAGGMVVTEEGDKTYITVRVPAPPGLPPEAVAAEIRERYGLSDLEVLEVEALPDGTLVVRLRDSTPASAGGS [r16_234_JUSTAS] = 10.7
• SAGGSAGGSAGKKKYKIVSIEIERNKDGNSLTVKIKLENGKELTLTFPTEEDLKNLKIKASAGGSAGGSAGG [r11_711_TrROS_Hall] = 6.67
• SAGGSAGGSDWRPIKIWYPLDDLEQIKEKIREDGITVEINVQRDPNGKLYAPVTIWVPKGAKPSAGGSAGGS [r12_653_TrROS] = 4.17
• SAGGSAGGDESSTPPVTTTSTTPLPDGSTVTVTSTTTYPDSTTTTTKTYSNGSTTTSTTTTPGSSAGGSAGG [r6_910_JUSTAS] = -0.348
• SAGGSAGGSAGSVTVTLSSDPDKTFTVTLPGGETVTFQPTPTNQVTVTVTSPTTPVTVTVSSAGGSAGGSAG [r3_334_JUSTAS] = 8.22
• SAGGSAGGSRLGLEEFERIAREIAEELGISDLVAEVEELEDDYALLTIYNPETGEKLEILVPGSAGGSAGGS [r12_1000_TrMRF] = 4.72
• SAGGSAGGSAGGSMVKVEKNGEGVVTTTTKYFFYPSTGKWSSETITTTKKVPKDEPFPLSAGGSAGGSAGGS [r4_215_JUSTAS] = -0.666
• SAGGSAMKITLKPDGTLEIELPDGVKITITRNANGEVTITITYPDGETKTFPAGMTLEQVLAELLASAGGSA [r15_371_TrROS_Hall] = 14.9
• SAGGSAGGSAVPPDRPFTLPVLTLVRDPETGELYLARAEVTFLAPDPVITAARLEVFPPDADFSAGGSAGGS [r12_868_TrMRF] = 3.19
